Recorded values, source patent US20130296358A1.

Test System: human recombinant ghrelin receptor (GHS-R1a) (Homo sapiens)
Construct: host or cells: CHO-K1
Experimental Protocol: Calcium assay, CHO-K1 cells expressing hGHS-R1a (Fluo-4)
Type: cell-based
Run Conditions: CHO-K1 cells expressing hGHS-R1a; read-out: hGHS-R1a Ca assay EC50/μM
Outcome Measure: EC50 (µM)
Give the number; µM is assumed, so skip it.

// recorded EC50 for CN1CC(c2ccccc2)C2(CCN(C(=O)[C@@H](COCc3ccccc3)NC(=O)C(C)(C)N)C2)C1=O (single isomer, unassigned) : 0.0046

###

Test System: human recombinant ghrelin receptor (GHS-R1a) (Homo sapiens, UniProt Q92847)
Construct: host or cells: CHO-K1
Sequence (Q92847 whole entry): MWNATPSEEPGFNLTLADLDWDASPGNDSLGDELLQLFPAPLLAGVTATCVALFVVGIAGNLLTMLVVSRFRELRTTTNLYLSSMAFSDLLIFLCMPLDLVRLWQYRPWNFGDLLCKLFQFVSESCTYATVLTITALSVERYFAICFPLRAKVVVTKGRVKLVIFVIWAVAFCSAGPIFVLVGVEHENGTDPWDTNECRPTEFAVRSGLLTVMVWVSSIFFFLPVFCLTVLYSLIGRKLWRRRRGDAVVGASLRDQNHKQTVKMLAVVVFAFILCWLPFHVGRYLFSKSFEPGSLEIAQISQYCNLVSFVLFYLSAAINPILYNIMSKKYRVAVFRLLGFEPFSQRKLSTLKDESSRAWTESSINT
Experimental Protocol: Calcium assay, CHO-K1 cells expressing hGHS-R1a (Fluo-4)
Format: cell-based
Run Conditions: CHO-K1, relative to the Emax induced by MK-0677 (defined as 100%); read-out: hGHS-R1a Ca assay Emax/%
Experimental: Chinese hamster ovary (CHO-K1) cells expressing human recombinant ghrelin receptor (GHS-R1a) were purchased from Euroscreen (ES-410-C) and propagated in UltraCHO medium containing glutamine and supplemented with 1% heat inactivated foetal calf serum (FCS), 100 U/ml penicillin, 100 mg/l streptomycin and 0.8 g/l geneticin. Cells were sub-cultured twice a week with a 1:10 dilution. […]
Outcome Measure: Emax (%)
Give the number; % is assumed, so skip it.

// recorded Emax for CN1CC(c2ccccc2)C2(CCCN(C(=O)[C@@H](COCc3ccccc3)NC(=O)C(C)(N)C(F)(F)F)C2)C1=O (some centres unmarked) : 79

// recorded Emax for `CCC(N)(CC)C(=O)N[C@H](COCc1ccccc1)C(=O)N1CCC[C@@]2(C1)C(=O)N(C)C[C@H]2c1ccccc1` : 108

// recorded Emax for CN1N=C(c2ccccc2)C2(CCCN(C(=O)[C@@H](COCc3ccccc3)NC(=O)C(C)(C)N)C2)C1=O (mixture of isomers) : 104

// recorded Emax for CN1CC(c2ccc(F)cc2)C2(CCCN(C(=O)[C@@H](Cc3c[nH]c4ccccc34)NC(=O)C(C)(C)N)C2)C1=O (single isomer, unassigned) : 102

// recorded Emax for Cc1ccc(COC[C@@H](NC(=O)C(C)(C)N)C(=O)N2CCCC3(C2)C(=O)N(C)CC3c2ccc(F)cc2)cc1 (some centres unmarked) [Example 1.72] : 110

// recorded Emax for CCN1CC(c2ccccc2)C2(CCCN(C(=O)[C@@H](COCc3ccccc3)NC(=O)C(C)(C)N)C2)C1=O (single isomer, unassigned) : 103

// recorded Emax for CC(C)(N)C(=O)N[C@H](COCc1ccccc1)C(=O)N1CCCC2(C1)C(=O)NCC2c1ccccc1 (single isomer, unassigned) : 100

// recorded Emax for CN1CC(c2ccccc2)C2(CCCN(C(=O)[C@@H](COCc3ccccc3)NC(=O)C(C)(C)N)CC2)C1=O (single isomer, unassigned) : 96

// recorded Emax for Cc1ccccc1C1CN(C)C(=O)C12CCCN(C(=O)[C@@H](COCc1ccccc1)NC(=O)C(C)(C)N)C2 (single isomer, unassigned) : 98

// recorded Emax for CC(C)(C)CN1CC(c2ccccc2)C2(CCCN(C(=O)[C@@H](COCc3ccccc3)NC(=O)C(C)(C)N)C2)C1=O (single isomer, unassigned) [Example 1.40] : 86

// recorded Emax for CN1CC(c2ccc(Cl)cc2)C2(CCCN(C(=O)[C@@H](COCc3ccccc3)NC(=O)C(C)(C)N)C2)C1=O (single isomer, unassigned) : 102

// recorded Emax for CN1C[C@@H](c2ccccc2)[C@@]2(CCCN(C(=O)[C@@H](COCc3ccccc3)NC(=O)C(C)(C)N)C2)C1=O (single isomer, unassigned) : 100

// recorded Emax for Cc1ccc(COC[C@@H](NC(=O)C(C)(C)N)C(=O)N2CCCC3(C2)C(=O)N(C)CC3c2ccc(F)cc2)cc1 (single isomer, unassigned) [Example 1.29] : 102

// recorded Emax for CN1C(=O)C2(CCCN(C(=O)[C@@H](COCc3ccccc3)NC(=O)C(C)(C)N)C2)C1c1ccccc1 (single isomer, unassigned) : 99

// recorded Emax for CNC(C)(C)C(=O)N[C@H](COCc1ccccc1)C(=O)N1CCCC2(C1)C(=O)N(C)CC2c1ccccc1 (single isomer, unassigned) : 107

###

Test System: human recombinant ghrelin receptor (GHS-R1a) (Homo sapiens, UniProt Q92847)
Construct: host or cells: CHO-K1
Experimental Protocol: Calcium assay, CHO-K1 cells expressing hGHS-R1a (Fluo-4)
Type: cell-based
Run Conditions: CHO-K1, relative to the Emax induced by MK-0677 (defined as 100%); read-out: hGHS-R1a Ca assay Emax/%
Outcome Measure: Emax

Below are worked cases with known answers.
CN1CC(c2ccccc2)C2(CCCN(C(=O)[C@@H](COCc3ccc(F)cc3)NC(=O)C(C)(C)N)C2)C1=O (single isomer, unassigned) [Example 7.0] ... 83%
CC(C)N1CC(c2ccc(F)cc2)C2(CCCN(C(=O)[C@@H](Cc3cn(C)c4ccccc34)NC(=O)C(C)(C)N)C2)C1=O (single isomer, unassigned) [Example 1.15] ... 112%
CN1CC(c2ccccc2)C2(CCCN(C(=O)[C@@H](COCC3CCCCC3)NC(=O)C(C)(C)N)C2)C1=O (single isomer, unassigned) [Example 1.60] ... 98%
Cc1ccc(COC[C@@H](NC(=O)C(C)(C)N)C(=O)N2CCCC3(C2)C(=O)N(C)CC3c2ccccc2)cc1 (single isomer, unassigned) [Example 1.55] ... 94%

Recorded Emax for CN1C[C@H](c2ccccc2)[C@]2(CCCN(C(=O)[C@@H](COCc3ccccc3)NC(=O)C(C)(C)N)C2)C1=O (single isomer, unassigned) [Example 1.0(i)] on human recombinant ghrelin receptor (GHS-R1a) (Homo sapiens, UniProt Q92847) was 97%

###

This section presents molecules with their documented Emax values.
Test System: human recombinant ghrelin receptor (GHS-R1a) (Homo sapiens, UniProt Q92847)
Construct: host or cells: CHO-K1
Experimental Protocol: cAMP assay (HTRF), CHO-hGHS-R1a cells
Assay type: cell-based
Run Conditions: relative to the ghrelin response (defined as 100%)
Give the number; % is assumed, so skip it.

Below are worked cases with known answers.
CN(C)C(=O)CN1CC(c2ccccc2)C2(CCCN(C(=O)[C@@H](COCc3ccccc3)NC(=O)C(C)(C)N)C2)C1=O (single isomer, unassigned) ... 210
CN1N=C(c2ccccc2)C2(CCCN(C(=O)[C@@H](COCc3ccccc3)NC(=O)C(C)(C)N)C2)C1=O (mixture of isomers) ... 145

Okay, next one:
// recorded Emax for Cc1ccc(COC[C@@H](NC(=O)C(C)(C)N)C(=O)N2CCCC3(C2)C(=O)N(C)CC3c2ccccc2)cc1 (single isomer, unassigned) : 191

###

Test System: human recombinant ghrelin receptor (GHS-R1a) (Homo sapiens)
Construct: host or cells: CHO-K1
Experimental Protocol: cAMP assay (HTRF), CHO-hGHS-R1a cells
Type: cell-based
Run Conditions: relative to the ghrelin response (defined as 100%)
This section presents compounds with their documented Emax values.
Returns: string containing the numeric result and its unit.

Below are worked cases with known answers.
CN1CC(c2ccccc2)C2(CCCN(C(=O)[C@@H](COCC3CCCCC3)NC(=O)C(C)(C)N)C2)C1=O (single isomer, unassigned) ... 171%
CCN1CC(c2ccccc2)C2(CCCN(C(=O)[C@@H](COCc3ccccc3)NC(=O)C(C)(C)N)C2)C1=O (single isomer, unassigned) ... 223%
CN1CC(c2ccc(F)cc2)C2(CCCN(C(=O)[C@@H](Cc3c[nH]c4ccccc34)NC(=O)C(C)(C)N)C2)C1=O (single isomer, unassigned) ... 289%
Cc1ccc(COC[C@@H](NC(=O)C(C)(C)N)C(=O)N2CCCC3(C2)C(=O)N(C)CC3c2ccc(F)cc2)cc1 (some centres unmarked) [Example 1.72] ... 147%
CN1CC(c2ccccc2)C2(CCCN(C(=O)[C@@H](COCc3ccccc3)NC(=O)C(C)(C)N)CC2)C1=O (single isomer, unassigned) ... 127%
CN1CC(c2ccccc2)C2(CCN(C(=O)[C@@H](COCc3ccccc3)NC(=O)C(C)(C)N)C2)C1=O (single isomer, unassigned) ... 129%
CN1C[C@@H](c2ccc(F)cc2)[C@@]2(CCCN(C(=O)[C@@H](COCc3ccccc3)NC(=O)C(C)(C)N)C2)C1=O ... 197%
C[C@H](OCc1ccccc1)[C@@H](NC(=O)C(C)(C)N)C(=O)N1CCCC2(C1)C(=O)N(C)CC2c1ccccc1 (single isomer, unassigned) ... 168%

// recorded Emax for COc1ccc(COC[C@@H](NC(=O)C(C)(C)N)C(=O)N2CCCC3(C2)C(=O)N(C)CC3c2ccccc2)cc1 (single isomer, unassigned) : 268%

// recorded Emax for CNC(C)(C)C(=O)N[C@H](COCc1ccccc1)C(=O)N1CCCC2(C1)C(=O)N(C)CC2c1ccccc1 (single isomer, unassigned) : 124%

// recorded Emax for CN1C[C@H](c2ccccc2)[C@]2(CCCN(C(=O)[C@@H](COCc3ccccc3)NC(=O)C(C)(C)N)C2)C1=O (single isomer, unassigned) : 130%

// recorded Emax for CN1C[C@@H](c2ccccc2)[C@@]2(CCCN(C(=O)[C@@H](COCc3ccccc3)NC(=O)C(C)(C)N)C2)C1=O (single isomer, unassigned) : 141%

// recorded Emax for CN1C(=O)C2(CCCN(C(=O)[C@@H](COCc3ccccc3)NC(=O)C(C)(C)N)C2)C1c1ccccc1 (single isomer, unassigned) : 193%

// recorded Emax for CN1CC(c2ccccc2)C2(CCCN(C(=O)[C@@H](CCc3ccccc3)NC(=O)C(C)(C)N)C2)C1=O (single isomer, unassigned) : 194%

// recorded Emax for Cc1ccccc1C1CN(C)C(=O)C12CCCN(C(=O)[C@@H](COCc1ccccc1)NC(=O)C(C)(C)N)C2 (single isomer, unassigned) : 141%
